# assay.system: hMAO-B (Homo sapiens, UniProt P27338)
# Construct: purchased Sigma-Aldrich; host or cells: insect cells (microsomes)
# Sequence (P27338 whole entry): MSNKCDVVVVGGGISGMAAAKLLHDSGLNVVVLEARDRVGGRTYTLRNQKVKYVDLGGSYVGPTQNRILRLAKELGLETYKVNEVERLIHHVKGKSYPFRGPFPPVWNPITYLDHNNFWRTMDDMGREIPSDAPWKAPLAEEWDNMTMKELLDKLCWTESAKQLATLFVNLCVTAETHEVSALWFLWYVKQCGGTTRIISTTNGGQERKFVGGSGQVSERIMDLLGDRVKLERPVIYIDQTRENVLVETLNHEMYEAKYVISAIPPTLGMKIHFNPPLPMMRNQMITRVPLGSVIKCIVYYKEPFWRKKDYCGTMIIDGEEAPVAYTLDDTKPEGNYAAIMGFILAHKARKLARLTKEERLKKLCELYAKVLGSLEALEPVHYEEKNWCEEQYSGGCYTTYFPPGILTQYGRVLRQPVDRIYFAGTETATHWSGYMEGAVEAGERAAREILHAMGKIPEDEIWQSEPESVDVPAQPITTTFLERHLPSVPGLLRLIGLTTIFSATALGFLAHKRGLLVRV
# method.notes: hMAO-B inhibition, Amplex Red fluorometric assay with kynuramine substrate
# Type: biochemical
# reported.conditions: ratio IC50(hMAO-A)/IC50(hMAO-B); SI > 1 = MAO-B selective
Classification by SI (selectivity index for the hMAO-B isoform) follows these ranges: low value (below 2), medium value (2 to below 8), high value (8 or more)

Please review the entries below; each comes with its answer.
| molecule | label.class |
| --- | --- |
| CC(=O)N1N=C(c2ccc(OCC=C(C)C)cc2)CC1c1ccccc1C (centres unmarked) | low value |
| CCOc1ccc(C2=NN(C(N)=S)[C@@H](c3ccccc3)C2)cc1 [(R)-P2] | low value |
| CC(=O)N1N=C(c2ccc(OCC=C(C)C)cc2)CC1c1ccc(C)cc1C (centres unmarked) | low value |
| C=CCOc1ccc(C2=NN(C(C)=O)C(c3ccccc3)C2)cc1 (centres unmarked) | medium value |

Query string: Please let me know in which category the item CC(=O)N1N=C(c2ccc(OCC=C(C)C)cc2)CC1c1cccc(Cl)c1 (centres unmarked) belongs.
Result string: medium value

Query string: Please let me know in which category the item CCCCCOc1ccc(C2=NN(C(N)=S)[C@@H](c3ccccc3)C2)cc1 [(R)-P5] belongs.
Result string: medium value

Query string: Please let me know in which category the item CCCOc1ccc(C2=NN(C(N)=S)[C@@H](c3ccccc3)C2)cc1 [(R)-P3] belongs.
Result string: medium value

Query string: Please let me know in which category the item CCOc1ccc(C2=NN(C(N)=S)[C@H](c3ccccc3)C2)cc1 [(S)-P2] belongs.
Result string: low value

Query string: Please let me know in which category the item COc1ccc(C2=NN(C(N)=S)[C@H](c3ccccc3)C2)cc1 [(S)-P1] belongs.
Result string: low value

Query string: Please let me know in which category the item CC(=O)N1N=C(c2ccc(OCC=C(C)C)cc2)CC1c1ccccc1Cl (centres unmarked) belongs.
Result string: low value

Query string: Please let me know in which category the item CC(=O)N1N=C(c2ccc(OCC=C(C)C)cc2)CC1c1ccccc1 (centres unmarked) belongs.
Result string: high value
